Reference source for all entries: ChEMBL document CHEMBL4257585

Task for the reader: assign each of the following compounds its reported HC50 at 0.5 h.
assay: Hemolytic activity against human RBC assessed as hemolysis after 30 mins by colorimetric method; format: ADME, cell-based, Erythrocyte; conditions: human red blood cells (erythrocytes)
Non-standard residues stand in square brackets, D forms with d. Residues, ends and D or L forms follow the SMILES beside them. Orn = NCCC[C@H](N)C(=O)O
Report as: number unit

Dear colleague, I am looking for the recorded HC50 at 0.5 h of the following compound: CC(C)C[C@@H]1NC(=O)[C@H](CCCCN)NC(=O)[C@H](C(C)C)NC(=O)C2=CC3=C4CCCC4=C4C=C(S[C@]4(C)[C@@]3(C)S2)C(=O)[C@H]2CCCN2C(=O)[C@H](CC(C)C)NC(=O)[C@H](CCCCN)NC(=O)[C@H](C(C)C)NC(=O)[C@H](CCCCN)NC(=O)[C@H](CC(C)C)NC(=O)[C@@H]2CCCN2C(=O)[C@@H](Cc2ccccc2)NC(=O)[C@H](C(C)C)NC(=O)[C@H](CCCCN)NC1=O
37 µM

Dear colleague, I am looking for the recorded HC50 at 0.5 h of the following compound: CC(C)C[C@@H]1NC(=O)[C@H](CCCN)NC(=O)[C@H](C(C)C)NC(=O)[C@@H]2CCCN2C(=O)[C@@H](Cc2ccccc2)NC(=O)[C@H](CC(C)C)NC(=O)[C@H](CCCN)NC(=O)[C@H](C(C)C)NC(=O)[C@@H]2CCCN2C(=O)[C@@H](Cc2ccccc2)NC1=O (cyclo(V[Orn]L[dF]PV[Orn]L[dF]P))
10.5 µM

Dear colleague, I am looking for the recorded HC50 at 0.5 h of the following compound: C[C@]12SC3=CC1=C1CCCC1=C1C=C(S[C@@]12C)C(=O)[C@H]1CCCN1C(=O)[C@H](CCCCN)NC(=O)[C@H](C12CC4CC(CC(C4)C1)C2)NC(=O)[C@H](CCCN)NC(=O)[C@@H]1CCCN1C(=O)[C@@H](Cc1ccccc1)NC(=O)[C@H](CCCN)NC(=O)[C@H](C12CC4CC(CC(C4)C1)C2)NC(=O)[C@H](CCCN)NC3=O
1 µM
